Origin of values: patent US4476120A

System: E. coli SS 05
Type: cell-based
Conditions: Brain Heart Infusion, estolate and RV11-RV15 previously hydrolized, unit assumed
Measured Quantity: MIC (µg/mL)
Could you give me the number in µg/mL? Just the number is fine.

Exercise: Consider the molecule CC[C@H]1OC(=O)[C@H](C)[C@@H](O[C@H]2C[C@@](C)(OC)[C@@H](O)[C@H](C)O2)[C@H](C)[C@@H](O[C@@H]2O[C@H](C)C[C@H](N(C)C)[C@H]2O)[C@](C)(O)C[C@@H](C)C(=O)[C@H](C)[C@@H](O)[C@]1(C)O [RV05, erythromycin-N-acetylcysteinate] and give its recorded MIC.
Solution: 25

* * *

System: Staph. aureus SS 08
Type: cell-based
Conditions: Brain Heart Infusion, estolate and RV11-RV15 previously hydrolized, unit assumed
Attribute: MIC
Could you give me the number in µg/mL? Just the number is fine.

Recorded MIC, per entry:
CC[C@H]1OC(=O)[C@H](C)[C@@H](O[C@H]2C[C@@](C)(OC)[C@@H](O)[C@H](C)O2)[C@H](C)[C@@H](O[C@@H]2O[C@H](C)C[C@H](N(C)C)[C@H]2O)[C@](C)(O)C[C@@H](C)C(=O)[C@H](C)[C@@H](O)[C@]1(C)O [RV01, erythromycin alpha-mercaptosuccinate]: 0.025
CCC(=O)O[C@H]1[C@H](O[C@@H]2[C@@H](C)[C@H](O[C@H]3C[C@@](C)(OC)[C@@H](O)[C@H](C)O3)[C@@H](C)C(=O)O[C@H](CC)[C@@](C)(O)[C@H](O)[C@@H](C)C(=O)[C@H](C)C[C@@]2(C)O)O[C@H](C)C[C@@H]1N(C)C [RV11]: 0.025

Exercise: Consider the compound CC[C@H]1OC(=O)[C@H](C)[C@@H](O[C@H]2C[C@@](C)(OC)[C@@H](O)[C@H](C)O2)[C@H](C)[C@@H](O[C@@H]2O[C@H](C)C[C@H](N(C)C)[C@H]2O)[C@](C)(O)C[C@@H](C)C(=O)[C@H](C)[C@@H](O)[C@]1(C)O [RV05, erythromycin-N-acetylcysteinate] and give its recorded MIC.
Solution: 0.025

Exercise: Consider the compound CC[C@H]1OC(=O)[C@H](C)[C@@H](O[C@H]2C[C@@](C)(OC)[C@@H](O)[C@H](C)O2)[C@H](C)[C@@H](O[C@@H]2O[C@H](C)C[C@H](N(C)C)[C@H]2O)[C@](C)(O)C[C@@H](C)C(=O)[C@H](C)[C@@H](O)[C@]1(C)O [RV03, erythromycyn-thiazolidin-carboxylate] and give its recorded MIC.
Solution: 0.025

Exercise: Consider the compound CCC(=O)O[C@H]1[C@H](O[C@@H]2[C@@H](C)[C@H](O[C@H]3C[C@@](C)(OC)[C@@H](O)[C@H](C)O3)[C@@H](C)C(=O)O[C@H](CC)[C@@](C)(O)[C@H](O)[C@@H](C)C(=O)[C@H](C)C[C@@]2(C)O)O[C@H](C)C[C@@H]1N(C)C [RV14] and give its recorded MIC.
Solution: 0.05

* * *

Attribute: MIC
Test system: H. pertussis SS 03
Format: cell-based
Conditions: Brain Heart Infusion, estolate and RV11-RV15 previously hydrolized, unit assumed
Could you give me the number in µg/mL? Just the number is fine.

Recorded MIC, per entry:
CC[C@H]1OC(=O)[C@H](C)[C@@H](O[C@H]2C[C@@](C)(OC)[C@@H](O)[C@H](C)O2)[C@H](C)[C@@H](O[C@@H]2O[C@H](C)C[C@H](N(C)C)[C@H]2O)[C@](C)(O)C[C@@H](C)C(=O)[C@H](C)[C@@H](O)[C@]1(C)O [RV03, erythromycyn-thiazolidin-carboxylate]: 0.4
CC[C@H]1OC(=O)[C@H](C)[C@@H](O[C@H]2C[C@@](C)(OC)[C@@H](O)[C@H](C)O2)[C@H](C)[C@@H](O[C@@H]2O[C@H](C)C[C@H](N(C)C)[C@H]2O)[C@](C)(O)C[C@@H](C)C(=O)[C@H](C)[C@@H](O)[C@]1(C)O [RV01, erythromycin alpha-mercaptosuccinate]: 0.4
CC[C@H]1OC(=O)[C@H](C)[C@@H](O[C@H]2C[C@@](C)(OC)[C@@H](O)[C@H](C)O2)[C@H](C)[C@@H](O[C@@H]2O[C@H](C)C[C@H](N(C)C)[C@H]2O)[C@](C)(O)C[C@@H](C)C(=O)[C@H](C)[C@@H](O)[C@]1(C)O [erythromycin]: 0.4

Exercise: Consider the compound CCC(=O)O[C@H]1[C@H](O[C@@H]2[C@@H](C)[C@H](O[C@H]3C[C@@](C)(OC)[C@@H](O)[C@H](C)O3)[C@@H](C)C(=O)O[C@H](CC)[C@@](C)(O)[C@H](O)[C@@H](C)C(=O)[C@H](C)C[C@@]2(C)O)O[C@H](C)C[C@@H]1N(C)C [erythromycin estolate, reference compound] and give its recorded MIC.
Solution: 0.4

Exercise: Consider the compound CCC(=O)O[C@H]1[C@H](O[C@@H]2[C@@H](C)[C@H](O[C@H]3C[C@@](C)(OC)[C@@H](O)[C@H](C)O3)[C@@H](C)C(=O)O[C@H](CC)[C@@](C)(O)[C@H](O)[C@@H](C)C(=O)[C@H](C)C[C@@]2(C)O)O[C@H](C)C[C@@H]1N(C)C [RV11] and give its recorded MIC.
Solution: 0.4

Exercise: Consider the compound CCC(=O)O[C@H]1[C@H](O[C@@H]2[C@@H](C)[C@H](O[C@H]3C[C@@](C)(OC)[C@@H](O)[C@H](C)O3)[C@@H](C)C(=O)O[C@H](CC)[C@@](C)(O)[C@H](O)[C@@H](C)C(=O)[C@H](C)C[C@@]2(C)O)O[C@H](C)C[C@@H]1N(C)C [RV15] and give its recorded MIC.
Solution: 0.2

Exercise: Consider the compound CCC(=O)O[C@H]1[C@H](O[C@@H]2[C@@H](C)[C@H](O[C@H]3C[C@@](C)(OC)[C@@H](O)[C@H](C)O3)[C@@H](C)C(=O)O[C@H](CC)[C@@](C)(O)[C@H](O)[C@@H](C)C(=O)[C@H](C)C[C@@]2(C)O)O[C@H](C)C[C@@H]1N(C)C [RV13] and give its recorded MIC.
Solution: 0.2

* * *

Attribute: Hematic levels in the rat
Settings: in vivo, po, 100 mg/kg, 4 h
Could you give me the number in µg/mL? Just the number is fine.

CCC(=O)O[C@H]1[C@H](O[C@@H]2[C@@H](C)[C@H](O[C@H]3C[C@@](C)(OC)[C@@H](O)[C@H](C)O3)[C@@H](C)C(=O)O[C@H](CC)[C@@](C)(O)[C@H](O)[C@@H](C)C(=O)[C@H](C)C[C@@]2(C)O)O[C@H](C)C[C@@H]1N(C)C [RV15]: 0.55
CCC(=O)O[C@H]1[C@H](O[C@@H]2[C@@H](C)[C@H](O[C@H]3C[C@@](C)(OC)[C@@H](O)[C@H](C)O3)[C@@H](C)C(=O)O[C@H](CC)[C@@](C)(O)[C@H](O)[C@@H](C)C(=O)[C@H](C)C[C@@]2(C)O)O[C@H](C)C[C@@H]1N(C)C [RV13]: 0.72
CCC(=O)O[C@H]1[C@H](O[C@@H]2[C@@H](C)[C@H](O[C@H]3C[C@@](C)(OC)[C@@H](O)[C@H](C)O3)[C@@H](C)C(=O)O[C@H](CC)[C@@](C)(O)[C@H](O)[C@@H](C)C(=O)[C@H](C)C[C@@]2(C)O)O[C@H](C)C[C@@H]1N(C)C [RV11]: 0.58

# context switch: different compound, same Hematic levels in the rat
Exercise: Consider the compound CCC(=O)O[C@H]1[C@H](O[C@@H]2[C@@H](C)[C@H](O[C@H]3C[C@@](C)(OC)[C@@H](O)[C@H](C)O3)[C@@H](C)C(=O)O[C@H](CC)[C@@](C)(O)[C@H](O)[C@@H](C)C(=O)[C@H](C)C[C@@]2(C)O)O[C@H](C)C[C@@H]1N(C)C [RV14] and give its recorded Hematic levels in the rat.
Solution: 0.65

* * *

Test system: Staph. aureus SS 09
Type: cell-based
Conditions: Brain Heart Infusion, estolate and RV11-RV15 previously hydrolized, unit assumed
Measured Quantity: MIC (µg/mL)
Could you give me the number in µg/mL? Just the number is fine.

Recorded MIC, per entry:
CCC(=O)O[C@H]1[C@H](O[C@@H]2[C@@H](C)[C@H](O[C@H]3C[C@@](C)(OC)[C@@H](O)[C@H](C)O3)[C@@H](C)C(=O)O[C@H](CC)[C@@](C)(O)[C@H](O)[C@@H](C)C(=O)[C@H](C)C[C@@]2(C)O)O[C@H](C)C[C@@H]1N(C)C [RV15]: 0.05
CC[C@H]1OC(=O)[C@H](C)[C@@H](O[C@H]2C[C@@](C)(OC)[C@@H](O)[C@H](C)O2)[C@H](C)[C@@H](O[C@@H]2O[C@H](C)C[C@H](N(C)C)[C@H]2O)[C@](C)(O)C[C@@H](C)C(=O)[C@H](C)[C@@H](O)[C@]1(C)O [RV01, erythromycin alpha-mercaptosuccinate]: 0.1

# context switch: different compound, same MIC
Exercise: For Staph. aureus SS 09, give MIC of the listed compound: CCC(=O)O[C@H]1[C@H](O[C@@H]2[C@@H](C)[C@H](O[C@H]3C[C@@](C)(OC)[C@@H](O)[C@H](C)O3)[C@@H](C)C(=O)O[C@H](CC)[C@@](C)(O)[C@H](O)[C@@H](C)C(=O)[C@H](C)C[C@@]2(C)O)O[C@H](C)C[C@@H]1N(C)C [RV14]
Solution: 0.1
